Experiment: Liver microsomal stability, human
Format: in vitro ADME
Conditions: 1 µM compound; 0.5 mg/mL microsomes; NADPH; 30 minutes at 37°C
metric name: Human microsomes (% remaining)

The cases that follow already have their Human microsomes (% remaining) on record.
CC1COCCN1c1nc2ccc(NN=C(C#N)C#N)cc2s1 (stereo not drawn): 79.9 % remaining
CC1CN(c2nc3ccc(NN=C(C#N)C#N)cc3o2)CCO1 (stereo not drawn): > 100 % remaining
CC1COCCN1c1nc2ccc(NN=C(C#N)C#N)cc2o1 (stereo not drawn): 79.8 % remaining

State the recorded Human microsomes (% remaining) for every item in the following list.
1. CC(C)N1CCN(c2nc3ccc(NN=C(C#N)C#N)cc3o2)CC1
2. COC1CCN(c2nc3ccc(NN=C(C#N)C#N)cc3s2)CC1

A.
["11.7 % remaining", "5.0 % remaining"]

====

Assay: Pharmacokinetic study in rats (IV and PO, plasma)
Assay type: in vivo
Conditions: Sprague-Dawley, rat, SD rats, IV 2 mg/kg, PO 10 mg/kg
metric name: bioavailability
Answer as a quantity: numeral, then unit.

CC1COCCN1c1nc2ccc(NN=C(C#N)C#N)cc2o1 (centres unmarked) [Compound 16]: 114%

Q. Looking for the measured bioavailability of Cn1c(N2CCOCC2)nc2cc(NN=C(C#N)C#N)ccc21 [Compound 6] , can you help?
A. 42%

====

Experiment: Pharmacokinetic study in rats (IV and PO, plasma)
Assay type: in vivo
Details: Sprague-Dawley, rat, SD rats, IV, 2 mg/kg
Experimental: The pharmacokinetics of the compounds prepared according to Examples 1 to 46 were studied using experimental animal models. […] 20 µL of the obtained plasma was taken, added to 180 µL of acetonitrile containing an internal standard, vortexed, and centrifuged at 15,000 rpm at 4°C for 5 minutes, and the obtained supernatant was analyzed by LC-MS/MS. […]
For each record, write down the corresponding Cmax.
Numbers only, in ng/mL.

CC1COCCN1c1nc2ccc(NN=C(C#N)C#N)cc2o1 (centres unmarked): 4090

Now examine the next entry.
Q. Looking for the measured Cmax of `Cn1c(N2CCOCC2)nc2cc(NN=C(C#N)C#N)ccc21` , can you help?
A. 9870

====

For each record, write down the corresponding Tmax.
Assay: Pharmacokinetic study in rats (IV and PO, plasma)
Type: in vivo
Conditions: Sprague-Dawley, rat, SD rats, PO, 10 mg/kg
One number for each entry, in min.

CC1COCCN1c1nc2ccc(NN=C(C#N)C#N)cc2o1 (centres unmarked): 40.2

Q. Looking for the measured Tmax of `Cn1c(N2CCOCC2)nc2cc(NN=C(C#N)C#N)ccc21` , can you help?
A. 15

====

Biological target: CYP3A4 (Homo sapiens, UniProt P08684)
Construct: human liver microsomes (0.25 mg/mL); from tissue; host or cells: human liver microsomes
Sequence (P08684 whole entry): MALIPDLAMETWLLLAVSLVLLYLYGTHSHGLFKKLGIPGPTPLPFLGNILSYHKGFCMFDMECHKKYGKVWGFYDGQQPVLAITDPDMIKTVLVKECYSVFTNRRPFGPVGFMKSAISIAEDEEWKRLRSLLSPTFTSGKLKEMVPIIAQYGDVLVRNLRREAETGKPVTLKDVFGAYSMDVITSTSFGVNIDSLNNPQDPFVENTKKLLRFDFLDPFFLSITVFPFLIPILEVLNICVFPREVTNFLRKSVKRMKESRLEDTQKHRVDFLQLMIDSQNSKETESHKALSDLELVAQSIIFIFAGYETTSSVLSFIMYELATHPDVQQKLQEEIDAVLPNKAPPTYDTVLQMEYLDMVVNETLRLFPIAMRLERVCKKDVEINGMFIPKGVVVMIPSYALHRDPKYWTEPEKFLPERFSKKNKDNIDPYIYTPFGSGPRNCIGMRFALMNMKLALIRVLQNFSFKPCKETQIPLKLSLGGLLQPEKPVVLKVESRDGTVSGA
Experiment: CYP isoenzyme activity inhibition in human liver microsomes, CYP3A4
Type: in vitro ADME
Details: 10 µM compound; human liver microsomes 0.25 mg/mL; relative to control without compound
Method: The CYP isoenzyme activity inhibitory effect by the compounds prepared according to Examples 1 to 46 was confirmed. […] The metabolites of each CYP isoenzyme marker drug generated through the reaction were analyzed using a Shimadzu Nexera XR system and TSQ vantage (Thermo). […] The generated metabolites were quantified using MRM (Multiple Reaction Monitoring) quantitative mode, and Xcalibur (version 1.6.1) was used for data analysis. […]
metric name: CYP3A4 (% activity)
Give bare numbers, in % activity.

The cases that follow already have their CYP3A4 (% activity) on record.
N#CC(C#N)=NNc1ccc2nc(N3CCOCC3)sc2c1 [Compound 2]: 95.7
Cc1ccc(-c2nc3ccc(NN=C(C#N)C#N)cc3s2)cn1 [Comparative compound 6, reference compound]: 81.7
N#CC(C#N)=NNc1ccc2nc(N3CCOCC3)[nH]c2c1 [Compound 7]: 83.1
CC(=O)N1CCN(c2nc3ccc(NN=C(C#N)C#N)cc3s2)CC1 [Compound 30]: 74.6
N#CC(C#N)=NNc1ccc2nc(N3CCNCC3)sc2c1 [Compound 24]: 74.7

State the recorded CYP3A4 (% activity) for every item in the following list.
1. N#CC(C#N)=NNc1ccc2sc(N3CCOCC3)nc2c1 [Compound 1]
2. CC1CN(C(=O)Nc2nc3ccc(NN=C(C#N)C#N)cc3s2)CC(C)O1 (stereo not drawn) [Compound 39]
3. CC1CN(c2nc3ccc(NN=C(C#N)C#N)cc3o2)CC(C)O1 (stereo not drawn) [Compound 18]
4. N#CC(C#N)=NNc1ccc2nc(N3C4CCC3COC4)oc2c1 [Compound 20]

A.
95.5
56.5
94.6
55.4

====

For each record, write down the corresponding IC50.
Target: Tau (Homo sapiens)
Construct: BiFC fluorescent-protein fragments (two complementary halves on two tau copies); expressed in transfected cells
Sequence (P10636 1-441 isoform P10636-8): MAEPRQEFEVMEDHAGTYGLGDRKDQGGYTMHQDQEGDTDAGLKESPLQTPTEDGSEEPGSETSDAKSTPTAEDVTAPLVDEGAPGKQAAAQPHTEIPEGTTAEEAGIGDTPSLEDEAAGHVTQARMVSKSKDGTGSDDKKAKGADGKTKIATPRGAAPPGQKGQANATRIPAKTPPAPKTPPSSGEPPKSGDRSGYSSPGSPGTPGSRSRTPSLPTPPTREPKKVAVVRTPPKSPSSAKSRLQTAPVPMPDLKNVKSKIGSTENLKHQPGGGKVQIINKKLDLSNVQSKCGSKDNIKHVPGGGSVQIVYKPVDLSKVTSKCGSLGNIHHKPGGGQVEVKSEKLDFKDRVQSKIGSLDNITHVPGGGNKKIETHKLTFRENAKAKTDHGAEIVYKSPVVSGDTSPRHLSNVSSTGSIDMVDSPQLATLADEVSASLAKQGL
Experiment: Tau aggregation inhibition in Tau-BiFC cell model (Forskolin-induced)
Assay type: cell-based
Settings: read-out: Tau aggregation inhibitory effect IC50; Tau-BiFC cell line; Forskolin 30 µM; 48 hours; 0.03-30 µM

N#CC(C#N)=NNc1ccc2nc(N3CC[C@@H](F)C3)oc2c1 [Compound 41]: 260 nM
N#CC(C#N)=NNc1ccc2nc(N3CC[C@H](F)C3)oc2c1 [Compound 43]: 28 nM
N#CC(C#N)=NNc1ccc2nc(NC(=O)N3CCOCC3)sc2c1 [Compound 38]: 68 nM

Now examine the next entry.
Q. Looking for the measured IC50 of N#CC(C#N)=NNc1ccc2nc(NC(=O)N3CC4CCC(C3)O4)sc2c1 [Compound 40] , can you help?
A. 316 nM

====

Test: Pharmacokinetic study in rats (IV and PO, plasma)
Type: in vivo
Details: Sprague-Dawley, rat, SD rats, IV 1 mg/kg, PO 15 mg/kg
metric name: bioavailability
Answer as a quantity: numeral, then unit.

Q. Looking for the measured bioavailability of `N#CC(C#N)=NNc1ccc2nc(N3C4CCC3COC4)oc2c1` , can you help?
A. 114%

====

Assay: Liver microsomal stability, rat
Type: in vitro ADME
Settings: 1 µM compound; 0.5 mg/mL microsomes; NADPH; 30 minutes at 37°C
Class definitions on Rat microsomes (% remaining): LOW (below 70 % remaining), MID (70 % remaining to below 80 % remaining), HIGH (80 % remaining or more)

The examples below pair each entry with its known result.
N#CC(C#N)=NNc1ccc2nc(N3C4CCC3COC4)sc2c1: MID
Cn1c(N2C3CCC2COC3)nc2ccc(NN=C(C#N)C#N)cc21: HIGH
CC1CN(c2nc3ccc(NN=C(C#N)C#N)cc3s2)CC(C)O1 (stereo not shown): HIGH
Cc1ccc(-c2nc3ccc(NN=C(C#N)C#N)cc3s2)cn1 [Comparative compound 6, reference compound]: HIGH
N#CC(C#N)=NNc1ccc2sc(N3CCOCC3)nc2c1: LOW
CC1COCCN1c1nc2ccc(NN=C(C#N)C#N)cc2o1 (stereo not shown): LOW

Q. Kindly state the category for this compound: `N#CC(C#N)=NNc1ccc2nc(N3C4CCC3COC4)oc2c1`
A. HIGH

====

Biological target: CYP1A2 (Homo sapiens)
Construct: human liver microsomes (0.25 mg/mL); from tissue; host or cells: human liver microsomes
Sequence (P05177 whole entry): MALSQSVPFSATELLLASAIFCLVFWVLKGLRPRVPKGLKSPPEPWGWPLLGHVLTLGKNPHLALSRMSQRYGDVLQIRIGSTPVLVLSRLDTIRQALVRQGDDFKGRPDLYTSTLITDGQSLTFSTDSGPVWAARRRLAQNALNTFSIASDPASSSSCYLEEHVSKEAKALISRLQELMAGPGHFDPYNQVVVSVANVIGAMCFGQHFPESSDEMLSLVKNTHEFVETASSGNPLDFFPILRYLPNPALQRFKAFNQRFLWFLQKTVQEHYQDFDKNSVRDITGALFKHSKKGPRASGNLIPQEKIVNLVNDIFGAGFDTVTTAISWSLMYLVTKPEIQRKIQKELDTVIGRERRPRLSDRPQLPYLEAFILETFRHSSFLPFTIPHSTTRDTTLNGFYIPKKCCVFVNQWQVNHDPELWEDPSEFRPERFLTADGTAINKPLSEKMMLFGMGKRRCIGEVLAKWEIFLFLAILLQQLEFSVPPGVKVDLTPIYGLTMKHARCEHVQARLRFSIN
Assay: CYP isoenzyme activity inhibition in human liver microsomes, CYP1A2
Type: in vitro ADME
Conditions: 10 µM compound; human liver microsomes 0.25 mg/mL; relative to control without compound
metric name: CYP1A2 (% activity)
One number for each entry, in % activity.

Cn1c(N2C3CCC2COC3)nc2cc(NN=C(C#N)C#N)ccc21: 81.5
Cn1c(N2CCOCC2)nc2ccc(NN=C(C#N)C#N)cc21: 84.3
CC1CN(c2nc3ccc(NN=C(C#N)C#N)cc3o2)CC(C)O1 (stereo not drawn): 98.9
CCn1c(N2CCOCC2)nc2cc(NN=C(C#N)C#N)ccc21: 75.5
N#CC(C#N)=NNc1ccc2nc(NC(=O)N3CCOCC3)sc2c1: 83.9
Cc1ccc(-c2nc3ccc(NN=C(C#N)C#N)cc3s2)cn1 [Comparative compound 6, reference compound]: 80.2
CN1CCN(c2nc3ccc(NN=C(C#N)C#N)cc3s2)CC1: 91.8
N#CC(C#N)=NNc1ccc2nc(N3CCOCC3)sc2c1: 81.7
N#CC(C#N)=NNc1ccc2nc(N3CCOCC3)[nH]c2c1: 57.6
Cn1c(N2CCOCC2)nc2cc(NN=C(C#N)C#N)ccc21: 92.3

State the recorded CYP1A2 (% activity) for every item in the following list.
1. N#CC(C#N)=NNc1ccc2nc(N3CCOCC3)oc2c1
2. COC1CCN(c2nc3ccc(NN=C(C#N)C#N)cc3s2)CC1
3. N#CC(C#N)=NNc1ccc2sc(N3CCOCC3)nc2c1
4. CCn1c(N2CCOCC2)nc2ccc(NN=C(C#N)C#N)cc21
5. N#CC(C#N)=NNc1ccc2nc(N3C4CCC3COC4)sc2c1
6. CC(=O)N1CCN(c2nc3ccc(NN=C(C#N)C#N)cc3s2)CC1

A.
1: 86.8; 2: 68.9; 3: 80.2; 4: 78.9; 5: 83.7; 6: 88.9

State the recorded CYP1A2 (% activity) for every item in the following list.
1. CC1CN(c2nc3ccc(NN=C(C#N)C#N)cc3s2)CCO1 (stereo not drawn)
2. N#CC(C#N)=NNc1ccc2nc(NC(=O)N3CC4CCC(C3)O4)sc2c1
3. CC(C)N1CCN(c2nc3ccc(NN=C(C#N)C#N)cc3o2)CC1
4. CC1CN(c2nc3ccc(NN=C(C#N)C#N)cc3o2)CCO1 (stereo not drawn)

A.
1: 74.9; 2: 80.2; 3: 95.5; 4: 80.2

State the recorded CYP1A2 (% activity) for every item in the following list.
1. N#CC(C#N)=NNc1ccc2nc(N3CC[C@@H](F)C3)oc2c1
2. N#CC(C#N)=NNc1ccc2nc(N3CC4CCC(C3)O4)sc2c1
3. CC1COCCN1c1nc2ccc(NN=C(C#N)C#N)cc2o1 (stereo not drawn)

A.
1. 71.9
2. 70.6
3. 99.9
